# Study Target: Potassium channel subfamily K member 3 (Homo sapiens)
# Run Description: human KCNK3 channel inhibitors, primary screen, CHO cells, FluxOR thallium flux, B-score (AID 602410);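 as to B-score: more negative B-score means stronger inhibition of thallium flux through KCNK3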
# Condition Info: FluxOR fluorescence, at 10 µM
Screen size: about 340,000 compounds; about 2,800 (0.82%) were called active.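 The calls were made as follows: active = B-score under library mean minus 4 SD, starting fluorescence ratio at most library mean plus 5 SD; inactive = the rest.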 The full list was thinned out, with actives kept by preference.
Give your call using only these classes: 1 (active), -1 (inactive)

The following molecules have reported results that may help.
In [3]: df
Out[3]:
                                   molecule  qualitative_label
0  CCOC(=O)c1cccc(NC(=O)C2CCN(c3ncnc4c3nc3n4CCCCC3)CC2)c1                 -1
1  CC(=O)C1=C(C)NC(C)=C(C(C)=O)C1c1cn(-c2ccccc2)nc1-c1cccs1                 -1
2  CC(C)N1C(=O)N(c2ccccc2)C(C)(O)CC1(C)C (stereo unspecified)                 -1

Q. Please let me know the test result on file for COc1ccc(C(c2nnnn2C2CCCCC2)N2CCN(c3ccccc3F)CC2)cc1 (stereo unspecified) .
A. -1

Q. Please let me know the test result on file for CC(=O)c1ccccc1OCc1ccc(C(=O)c2ccccc2)cc1 .
A. 1

Q. Please let me know the test result on file for CS(=O)(=O)Nc1ccccc1N=C(c1ccccc1)c1ccccc1 .
A. -1

Q. Please let me know the test result on file for O=C(NC1CCC(O)CC1)c1ccccc1OCc1ccc(F)cc1 (stereo unspecified) .
A. -1

Q. Please let me know the test result on file for Cc1ccccc1CC1(CO)CCCN(C(=O)c2cc(-c3ccccc3)no2)C1 (stereo unspecified) .
A. -1

Q. Please let me know the test result on file for COc1ccc(CCNC(=O)c2ccccc2OCc2ccccc2)cc1 .
A. -1

Q. Please let me know the test result on file for c1ccc(C(c2ccccc2)N2CCN(Cc3nnnn3C3CCCCC3)CC2)cc1 .
A. 1

Q. Please let me know the test result on file for CCCc1cc(C(=O)N2CCCC(CO)(CCCc3ccccc3)C2)n(C)n1 (stereo unspecified) .
A. 1
